Answer each item with its documented apparent molecular weight.
Assay: analytical gel filtration (Superdex200), apparent molecular weight
Assay type: physicochemical

Which apparent molecular weight value belongs to GLP-1(A8G/G22E/R36S)-Fn8-COL18NC1-60 (ligand) HGEGTFTSDVSSYLEEQAAKEFIAWLVKGSGGGGSGGAVPPPTDLRFTNIGPDTMRVTWAPPPSIDLTNFLVRYSPVKNEEDVAELSISPSDNAVVLTNLLPGTEYVVSVSSVYEQHESTPLRGRQKTGGGGSGGGSGGGSTASSASTKGPSGGGSGGGSGGGSAPSSKSTSGGTAAGGGSGGGSGGGSGASSGVRLWATRQAMLGQVHEVPEGWLIFVAEQEELYVRVQNGFRKVQLEARTPLPRG ?
~200 Kd

I am curious: what apparent molecular weight value has been reported for GLP-1-Fn8-COL18NC1: fusion of GLP-1, Fn8 and COL18NC1; SEQ ID NO: 2; abbreviated NC1 in Table 5 (protein) HAEGTFTSDVSSYLEGQAAKEFIAWLVKGRGGGGSGGGGSAVPPPTDLRFTNIGPDTMRVTWAPPPSIDLTNFLVRYSPVKNEEDVAELSISPSDNAVVLTNLLPGTEYVVSVSSVYEQHESTPLRGRQKTGGGGSGGGASSGVRLWATRQAMLGQVHEVPEGWLIFVAEQEELYVRVQNGFRKVQLEARTPLPRG ?
~100 Kd

Any idea what apparent molecular weight was measured for GLP-1(A8G/G22E/R36S)-Fn8-COL18NC1 (ligand) HGEGTFTSDVSSYLEEQAAKEFIAWLVKGSGGGGSGGGGSAVPPPTDLRFTNIGPDTMRVTWAPPPSIDLTNFLVRYSPVKNEEDVAELSISPSDNAVVLTNLLPGTEYVVSVSSVYEQHESTPLRGRQKTGGGGSGGGASSGVRLWATRQAMLGQVHEVPEGWLIFVAEQEELYVRVQNGFRKVQLEARTPLPRG ?
~100 Kd

GET /values?readout=apparent molecular weight&item= GLP-1(A8G/G22E/R36S)-Fn8-COL18NC1-54 (ligand) HGEGTFTSDVSSYLEEQAAKEFIAWLVKGSGGGGSGGAVPPPTDLRFTNIGPDTMRVTWAPPPSIDLTNFLVRYSPVKNEEDVAELSISPSDNAVVLTNLLPGTEYVVSVSSVYEQHESTPLRGRQKTGGGGGSGGGGSTASSASTGGPSGGGGSGGGGSAPSSGSTSGGTAAGGGGSGGGGSGASSGVRLWATRQAMLGQVHEVPEGWLIFVAEQEELYVRVQNGFRKVQLEARTPLPRG
~200 Kd
